All figures here come from patent US20100260765A1.

- testedOn: T1, soluble KDR extracellular domain (ECD) (Calbiochem) (human, UniProt P35968 20-764)
- T1 construct: extracellular domain; Bought protein; also called KDR-ECD; VEGF Receptor 2 D1-7, Cat. #676490
- protocolNotes: High Antigen ELISA, KDR coat 500 ng/mL, supernatant 1:6075
recordedMetric: ELISA reading

| binder | measured |
| --- | --- |
| 32F4 (antibody, V domains shown, Fully human mAb from XenoMouse hybridoma, tested as hybridoma supernatant) VH: QLQLQESGPGLVKPSGTLSLSCTVSGGSISSRSDYWGWIRQPPGKGLEWIGTIYYSGNTFYNPSLKSRVTISVDTSKKQFSLKLSSVTAADTAVYYCARQQLVLYYFDYWGQGTLVTVSS VL: EIVLTQSPGTLSLSPGERATLSCRTSQSVSSSYLAWYQQKPGQAPRLLIYGASSRATGVPDRFSGSGSGTDFSLTISRLEPEDFAVYYCQQYGSSPPLTFGGGTKVEIK | 0.97 |
